So I've got a bunch of binders here, and I need their koff values.
targetUnderTest: T1, biotinylated hu-CD3ε (human, UniProt P07766 23-126, limits assumed, biotinylated (site not stated))
T1 construct: The construct is not described; also called biotin-CD3ε; human CD3ε
T1 sequence (P07766 23-126 limits assumed): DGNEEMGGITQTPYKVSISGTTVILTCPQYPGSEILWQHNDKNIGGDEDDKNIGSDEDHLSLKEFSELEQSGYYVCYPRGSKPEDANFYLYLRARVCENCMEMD
protocolText: kinetic Kd determination of the expressed scFv, method not named
// return numeric value only (unit: s⁻¹, not printed)

In: Could you share which koff value was measured for Anti-CD3, clone 6A2 (scFv, Expressed in Expi293 from the pcDNA3.4 His6 vector) scFv: EVQLVESGGGLVQPGGSLKLSCAASGFMFNKYAMNWVRQAPGKGLEWVARIRSKSNNYATYYADSVKDRFTISRDDSKNTAYLQMNNLKTEDTAVYYCVRHGNFGNSYISYWATWGQGTLVTVSSGGGGSGGGGSGGGGSQTVVTQEPSLTVSPGGTVTLTCGSSFGAVTSGNYPNWVQQKPGQAPRGLIGGTKLLAPGTPARFSGSLLGGKAALTLSGVQPEDEAEYYCVLWYSNSWVFGGGTKLTVLHHHHHH ?
Out: 0.00248

In: Queued: Anti-CD3, clone 10E4 (scFv, Expressed in Expi293 from the pcDNA3.4 His6 vector) scFv: EVQLVESGGGLVQPGGSLKLSCAASGFTFNKYPMNWVRQAPGKGLEWVARIRSKYNNYATYYADSVKDRFTISRDDSKNTAYLQMNNLKNEDTAVYYCVRHGNFNNSYISYWAYWGQGTLVTVSSGGGGSGGGGSGGGGSQTVVTQEPSLTVSPGGTVTLTCGSSTGAVTKGNYPNWVQQKPGQAPRGLIGGTKMLAPGTPARFSGSLLGGKAALTLSGVQPEDEAEYYCALWYSNRWVFGGGTKLTVLHHHHHH
Out: 0.026

In: // repeat for Anti-CD3, clone 2G5 (scFv, Expressed in Expi293 from the pcDNA3.4 His6 vector) scFv: EVQLVESGGGLVQPGGSLKLSCAASGFTFNKYALNWVRQAPGKGLEWVARIRSKYNNYATEYADSVKDRFTISRDDSKNTAYLQMNNLKTEDTAVYYCVRHGNFGNSPISYWAYWGQGTLVTVSSGGGGSGGGGSGGGGSQTVVTQEPSLTVSPGGTVTLTCGSSTGAVTSGNYPNWVQQKPGQAPRGLIGGTNFLAPGTPERFSGSLLGGKAALTLSGVQPEDEAEYYCVLWYSNRWAFGGGTKLTVLHHHHHH and report
Out: 0.115

In: Moving on to the next binder: Anti-CD3, clone 3F2 (scFv, Expressed in Expi293 from the pcDNA3.4 His6 vector) scFv: EVQLVESGGGLVQPGGSLKLSCAASGFTYNKYAMNWVRQAPGKGLEWVARIRSKYNNYATYYADEVKDRFTISRDDSKNTAYLQMNNLKTEDTAVYYCVRHGNFGNSPISYWAYWGQGTLVTVSSGGGGSGGGGSGGGGSQTVVTQEPSLTVSPGGTVTLTCGSSKGAVTSGNYPNWVQQKPGQAPRGLIGGTKELAPGTPARFSGSLLGGKAALTLSGVQPEDEAEYYCTLWYSNRWVFGGGTKLTVLHHHHHH
Out: 0.00502
